TARGET OR SYSTEM: T. brucei TS (Tsf-TbDHFR-TS) (Trypanosoma brucei brucei)
Construct: The open reading frame of DHFR-TS was amplified by PCR from T. brucei gDNA using specific oligonucleotides; made in house; host or cells: thyA- E. coli derived from BL21 Star (DE3); unpurified clarified lysate
ASSAY INFO: Inhibition of TS activity of Tsf-TbDHFR-TS in clarified thyA- E. coli lysate
Format: biochemical
PROTOCOL CONDITIONS: reducing agent at higher concentrations, clarified lysate
Method: The initial characterisation of TS was also carried out using a spectrophotometric assay. […] Enzymatic reactions were initiated by the addition of CH2THF (200 μM, Shircks Laboratories) and initial rates of CH2THF oxidation to DHF monitored by the increase in absorbance at 340 nm (ε = 6,200 M^-1 cm^-1). […] Aliquots (100 μl) of the supernatants were added to 2 ml of scintillation fluid (Pico-Fluor 40™, Packard Bioscience) and radioactivity determined using a Beckmann LS 6500 Scintillation Counter. […]
Sequence (Q27783 whole entry): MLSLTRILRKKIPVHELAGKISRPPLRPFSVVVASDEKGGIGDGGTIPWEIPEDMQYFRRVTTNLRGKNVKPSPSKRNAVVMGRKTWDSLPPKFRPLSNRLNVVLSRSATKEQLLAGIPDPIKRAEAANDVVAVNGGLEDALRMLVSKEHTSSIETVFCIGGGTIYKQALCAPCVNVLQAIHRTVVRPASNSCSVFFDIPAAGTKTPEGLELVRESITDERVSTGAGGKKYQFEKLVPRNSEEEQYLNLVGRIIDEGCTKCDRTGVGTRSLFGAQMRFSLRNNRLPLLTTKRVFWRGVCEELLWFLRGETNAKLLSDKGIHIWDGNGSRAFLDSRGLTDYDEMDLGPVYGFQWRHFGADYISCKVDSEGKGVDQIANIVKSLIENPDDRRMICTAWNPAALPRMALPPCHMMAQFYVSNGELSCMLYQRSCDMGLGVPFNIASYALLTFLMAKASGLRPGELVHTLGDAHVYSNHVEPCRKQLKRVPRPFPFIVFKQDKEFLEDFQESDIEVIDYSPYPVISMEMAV
Sequence (P0A6P1 whole entry, further chain): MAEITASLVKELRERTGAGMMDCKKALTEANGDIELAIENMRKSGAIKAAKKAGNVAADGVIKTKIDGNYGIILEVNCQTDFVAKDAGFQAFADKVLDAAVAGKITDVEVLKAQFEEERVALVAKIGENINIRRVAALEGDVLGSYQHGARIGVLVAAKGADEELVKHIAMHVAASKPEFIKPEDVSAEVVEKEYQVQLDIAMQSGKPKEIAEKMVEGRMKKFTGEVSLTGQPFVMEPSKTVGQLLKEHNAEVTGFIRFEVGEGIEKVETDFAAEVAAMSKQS
MEASUREMENT KIND: EC50

Report EC50 for "OCCS"
~100 mM

###

In this section we review reported pKi values for a set of compounds.
TARGET OR SYSTEM: T. brucei TS (Tsf-TbDHFR-TS) (Trypanosoma brucei brucei, UniProt Q27783)
Construct: The open reading frame of DHFR-TS was amplified by PCR from T. brucei gDNA using specific oligonucleotides; unpurified clarified lysate
ASSAY INFO: Inhibition of TS activity of Tsf-TbDHFR-TS in clarified thyA- E. coli lysate
PROTOCOL CONDITIONS: TS Ki, T. brucei, 100 μM CH2THF, 200 μM dUMP, 200 nM Tsf-TbDHFR-TS; Inactive * = no inhibition at 25 μM, ** = no inhibition at 100 μM
Scale note: pKi = -log10(concentration in M).

Nc1nc2[nH]cc(CCc3ccc(C(=O)N[C@@H](CCC(=O)O)C(=O)O)cc3)c2c(=O)[nH]1; 4.69

// moving on: another record for pKi
Report pKi for "Cc1nc2ccc(CN(C)c3ccc(C(=O)N[C@@H](CCC(=O)O)C(=O)O)s3)cc2c(=O)[nH]1"
6.67

###

TARGET OR SYSTEM: T. brucei DHFR (Tsf-TbDHFR-TS) (Trypanosoma brucei brucei, UniProt Q27783)
Sequence (Q27783 whole entry): as the sequence (Q27783 whole entry) above
ASSAY INFO: Inhibition of DHFR activity of recombinant Tsf-TbDHFR-TS (spectrophotometric, 340 nm)
PROTOCOL CONDITIONS: with respect to DHF
MEASUREMENT KIND: Modality of inhibition of DHFR

Below: 4 molecules and their reported Modality of inhibition of DHFR.
CN(Cc1cnc2nc(N)nc(N)c2n1)c1ccc(C(=O)N[C@@H](CCC(=O)O)C(=O)O)cc1 [Methotrexate, methotrexate]; tight-binding inhibitors
COc1cc(NCc2ccc3nc(N)nc(N)c3c2C)cc(OC)c1OC [Trimetrexate, trimetrexate]; tight-binding inhibitors
Cc1nc2ccc(CN(C)c3ccc(C(=O)N[C@@H](CCC(=O)O)C(=O)O)s3)cc2c(=O)[nH]1; competitive inhibitors
CCc1nc(N)nc(N)c1-c1ccc(Cl)cc1; competitive inhibitors

// moving on: another record for Modality of inhibition of DHFR
Report Modality of inhibition of DHFR for "COc1cc(Cc2cnc(N)nc2N)cc(OC)c1OC"
competitive inhibitors

###

In this section we review reported Ki values for a set of compounds.
TARGET OR SYSTEM: T. brucei DHFR (Tsf-TbDHFR-TS) (Trypanosoma brucei brucei)
ASSAY INFO: Inhibition of DHFR activity of recombinant Tsf-TbDHFR-TS (spectrophotometric, 340 nm)
PROTOCOL CONDITIONS: DHFR Ki, T. brucei, recombinant TbDHFR-TS; from IC50 (Cheng-Prusoff) or Morrison equation for tight binders; Inactive ** = no inhibition at 100 μM
State the answer as a number, implicitly in nM.

Below: 3 compounds and their reported Ki.
COc1cc(Cc2cnc(N)nc2N)cc(OC)c1OC [Trimethoprim, trimethoprim]; 17.6
Nc1nc2[nH]cc(CCc3ccc(C(=O)N[C@@H](CCC(=O)O)C(=O)O)cc3)c2c(=O)[nH]1 [Pemetrexed, pemetrexed]; 290
Cc1ccc2nc(N)[nH]c(=O)c2c1Sc1ccncc1 [Nolatrexed, nolatrexed]; 348

// moving on: another record for Ki
Report Ki for Cc1nc2ccc(CN(C)c3ccc(C(=O)N[C@@H](CCC(=O)O)C(=O)O)s3)cc2c(=O)[nH]1 [Raltitrexed, raltitrexed]
93.1

###

TARGET OR SYSTEM: T. brucei TS (Tsf-TbDHFR-TS) (Trypanosoma brucei brucei)
Construct: The open reading frame of DHFR-TS was amplified by PCR from T. brucei gDNA using specific oligonucleotides; made in house; host or cells: thyA- E. coli derived from BL21 Star (DE3); unpurified clarified lysate
ASSAY INFO: Stabilisation of recombinant T. brucei TS activity in desalted, diluted lysate
Type: biochemical
PROTOCOL CONDITIONS: absence of CH2THF, diluted lysate incubated 10 min; read-out: Half maximal concentration required to stabilise TS activity
Sequence (Q27783 whole entry): as above
Sequence (P0A6P1 whole entry partner): as the sequence (P0A6P1 whole entry, further chain) above
MEASUREMENT KIND: pEC50
Scale note: pEC50 = -log10(concentration in M).

Report pEC50 for O=c1ccn([C@H]2C[C@H](O)[C@@H](COP(=O)(O)O)O2)c(=O)[nH]1 [dUMP, deoxyuridine monophosphate]
4.90

###

Test system: T. brucei bloodstream-form 'single marker' S427
ASSAY INFO: Growth inhibition of wild type T. brucei, 72 h, resazurin-based assay
Assay type: cell-based
PROTOCOL CONDITIONS: Trypanosoma brucei, read-out: EC50, No addition
MEASUREMENT KIND: pEC50
Scale note: pEC50 = -log10(concentration in M).

Param request: pEC50 | system T. brucei bloodstream-form 'single marker' S427 | item "Cc1ccc2nc(N)[nH]c(=O)c2c1Sc1ccncc1"
4.47

###

In this section we review reported EC50 values for a set of molecules.
Test system: T. brucei bloodstream-form 'single marker' S427
ASSAY INFO: Growth inhibition of wild type T. brucei, 72 h, resazurin-based assay
Assay type: cell-based
PROTOCOL CONDITIONS: Trypanosoma brucei, TBM + thymidine (160 μM), read-out: EC50, + Thymidine
State the answer as a number, implicitly in nM.

Below: 3 molecules and their reported EC50.
CCc1nc(N)nc(N)c1-c1ccc(Cl)cc1 [Pyrimethamine, pyrimethamine]; 2010
CN(Cc1cnc2nc(N)nc(N)c2n1)c1ccc(C(=O)N[C@@H](CCC(=O)O)C(=O)O)cc1 [Methotrexate, methotrexate]; 120
COc1cc(Cc2cnc(N)nc2N)cc(OC)c1OC [Trimethoprim, trimethoprim]; 59800

// moving on: another record for EC50
Report EC50 for COc1cc(NCc2ccc3nc(N)nc(N)c3c2C)cc(OC)c1OC [Trimetrexate, trimetrexate]
2820
